The reported numbers originate from patent US5922755A.

- Test system: experimental allergic encepharomyelitis (EAE)
- testName: Experimental allergic encepharomyelitis (EAE)
- Assay type: in vivo, Lewis female rats
- measurementSetup: Rattus norvegicus, po, 432 h; 30 mg/kg p.o. once a day, day 0 to 13; cumulative score for 18 days; rats; read-out: Inhibition of clinical score
Would you please tag the item MET when its inhibition in vivo at 30 mg/kg is 50% or above, and NOT MET when it is below?

Hi, just wondering whether CN(C=O)c1coc2cc(NS(C)(=O)=O)c(Oc3ccccc3)cc2c1=O [compound No. 6] shows inhibition in vivo at 30 mg/kg of 50% or higher.
MET

Quick check, inhibition in vivo at 30 mg/kg >= 50%? CSc1coc2cc(NS(C)(=O)=O)c(Oc3ccccc3)cc2c1=O [compound No. 8]
NOT MET

inhibition in vivo at 30 mg/kg >= 50% for CS(=O)(=O)Nc1cc2occc(=O)c2cc1Oc1ccc(F)cc1F [compound No. 3] ?
MET

Hi team, for CS(=O)(=O)Nc1cc2occ(C(N)=O)c(=O)c2cc1Nc1ccc(F)cc1F [compound No. 10] , is the recorded inhibition in vivo at 30 mg/kg at or above 50%?
NOT MET

// inclusive: inhibition in vivo at 30 mg/kg at least 50%? input: Cc1cc(=O)c2cc(Oc3ccccc3)c(NS(C)(=O)=O)cc2o1 [compound No. 11]
MET

State whether the measured inhibition in vivo at 30 mg/kg reaches 50%, counting equality as reaching it, for CS(=O)(=O)Nc1cc2occ(NC=O)c(=O)c2cc1Nc1ccccc1F [compound No. 12]
MET

====

For each entry below, report its inhibition in vivo at 30 mg/kg value.
- Tested on: experimental allergic encepharomyelitis (EAE)
- testName: Experimental allergic encepharomyelitis (EAE)
- Type: in vivo, Lewis female rats
- measurementSetup: Rattus norvegicus, po, 432 h; 30 mg/kg p.o. once a day, day 0 to 13; cumulative score for 18 days; rats; read-out: Inhibition of clinical score
Your answer is read as %, so omit the unit and give the number.

Could you please provide reported inhibition in vivo at 30 mg/kg for CS(=O)(=O)Nc1cc2occ(C(N)=O)c(=O)c2cc1Oc1ccccc1 [compound No. 4] ? Thanks!
50

Return inhibition in vivo at 30 mg/kg for the following compound: CS(=O)(=O)Nc1cc2occ(NC=O)c(=O)c2cc1Nc1ccc(F)cc1F [compound No. 9]
50

Fill in inhibition in vivo at 30 mg/kg for record CS(=O)(=O)Nc1cc2occ(C(=O)O)c(=O)c2cc1Oc1ccccc1 [compound No. 7]
50
